# target or test system: T1, 5-Helix (HIV-1 group M subtype B, HXB2 (gp41 …, stabilised))
# T1 construct: also called designed protein based on HIV-1 gp41
# protocol notes: ELISA
# details: both partners purified
measurement type: IC50
The reply should consist of the numeric value with the unit placed after it.

For 25A12 scFv, purified monovalent (scFv, V domains shown) VH: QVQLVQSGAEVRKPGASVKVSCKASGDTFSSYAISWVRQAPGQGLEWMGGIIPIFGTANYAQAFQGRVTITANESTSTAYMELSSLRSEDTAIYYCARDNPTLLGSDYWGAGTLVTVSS VL: DIQMTQSPSTLSASIGDRVTITCRASEGIHRYLAWYQQKPGKAPKLLIYHASRLASGAPSRFSGSGSGTDFTLTISSLQPDDFATYYCQQRANYPYTFGGGTKLEIK , write its IC50. 34 nM

For 25B6 scFv, purified monovalent (scFv, V domains shown) VH: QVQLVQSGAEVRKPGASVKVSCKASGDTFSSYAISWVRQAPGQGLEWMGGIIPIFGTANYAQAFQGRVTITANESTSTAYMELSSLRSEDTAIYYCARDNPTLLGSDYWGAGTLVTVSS VL: DIQMTQSPSTLSASIGDRVTITCRASENIRSGLAWYQQKPGKAPKLLIYRASRLASGAPSRFSGSGSGTDFTLTISSLQPDDFATYYCQQYDDYPHTFGGGTKLEIK , write its IC50. 0.6 nM
